TEST SYSTEM: Probable G-protein coupled receptor 142 (Homo sapiens, UniProt Q7Z601)
Sequence (Q7Z601 whole entry): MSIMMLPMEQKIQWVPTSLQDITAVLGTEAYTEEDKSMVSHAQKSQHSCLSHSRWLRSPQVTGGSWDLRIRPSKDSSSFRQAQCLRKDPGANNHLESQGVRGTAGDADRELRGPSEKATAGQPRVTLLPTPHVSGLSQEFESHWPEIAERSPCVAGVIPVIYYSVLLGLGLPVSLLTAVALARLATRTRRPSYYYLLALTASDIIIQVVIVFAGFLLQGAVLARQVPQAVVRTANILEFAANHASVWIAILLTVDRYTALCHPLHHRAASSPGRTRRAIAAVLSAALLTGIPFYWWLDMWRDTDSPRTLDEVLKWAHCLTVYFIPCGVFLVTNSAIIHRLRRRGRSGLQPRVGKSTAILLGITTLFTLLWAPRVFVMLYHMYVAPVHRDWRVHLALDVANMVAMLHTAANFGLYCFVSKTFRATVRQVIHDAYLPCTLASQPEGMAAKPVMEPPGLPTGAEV
EXPERIMENT DESCRIPTION: Agonist activity at human GPR142 expressed in HEK293 cells assessed as inositol phosphate accumulation using [3H]-inositol after 1 hr by scintillation counting in presence of human serum
Assay type: functional, cell-based
QUANTITY: pEC50
Answers are plain numbers, as −log10 of the molar value.

For orientation, consider the following solved cases.
Record request: pEC50 value, item COc1cc(NC(=O)[C@H](Cc2ccccc2)NCc2cscn2)cc(-c2ccncc2)c1
6.09

What does the data say about its pEC50? Entry: Cc1cc(-c2c[nH]c(=O)c(NC(=O)[C@H](Cc3ccccc3)NCc3cscn3)c2)ccn1
6.54

Recorded pEC50 for COc1ccc(NC(=O)[C@H](Cc2ccccc2)NCc2cscn2)cc1-c1ccncc1 , please?
6.01

// lookup pEC50 for COc1ccc(-c2ccncc2)cc1NC(=O)[C@H](Cc1ccccc1)NCc1cscn1
6.00

Items follow; give pEC50 for each.
1. O=C(O)c1cc(NC(=O)[C@H](Cc2ccccc2)NCc2cscn2)cc(-c2ccncc2)c1
2. O=C(Nc1cc(-c2ccncc2)c[nH]c1=O)[C@H](Cc1ccccc1)NCc1cscn1
3. O=C(Nc1nccc(-c2ccncc2)n1)[C@H](Cc1ccccc1)NCc1cscn1
4. O=C(Nc1cccc(-c2ccncc2)c1)[C@H](Cc1ccccc1)NCc1cscn1

1: 6.32; 2: 6.30; 3: 6.54; 4: 6.01
